Assay: Clearance in rat at 1 mg/kg, iv
Format: ADME, organism-based
Set-up: dose 1 mg/kg, route intravenous
Conditions: in vivo

>  <structure>
Cn1c(=O)c2c(nc(N3CCC[C@@H](N)C3)n2Cc2cc(F)ccc2Cl)c2ccc(C(=O)O)cc21

>  <readoutUnits>
mL/min/kg

>  <clearance>
167

$$$$
>  <structure>
Cn1c(=O)c2c(nc(N3CCC[C@@H](N)C3)n2Cc2cc(F)ccc2Cl)c2cc(C(=O)O)ccc21

>  <readoutUnits>
mL/min/kg

>  <clearance>
222

$$$$

----------
Assay: Permeability of the compound at pH 7.4 by PAMPA
Format: ADME
Details: read-out: permeability
// assign YES if Papp falls strictly below 8 ×10⁻⁶ cm/s, else NO (ties count as NO)

>  <structure>
CN(C)CCCOC(=O)c1ccc2c(c1)c1nc(N3CCC[C@@H](N)C3)n(Cc3ccccc3Cl)c1c(=O)n2C.Cl

>  <qualitativeLabel>
YES

$$$$
>  <structure>
CN(C)CCOC(=O)c1ccc2c(c1)c1nc(N3CCC[C@@H](N)C3)n(Cc3ccccc3Cl)c1c(=O)n2C.Cl

>  <qualitativeLabel>
YES

$$$$
>  <structure>
Cc1oc(=O)oc1COC(=O)c1ccc2c3nc(N4CCC[C@@H](N)C4)n(Cc4cc(F)ccc4Cl)c3c(=O)n(C)c2c1.Cl

>  <qualitativeLabel>
NO

$$$$
>  <structure>
COC(=O)c1ccc2c3nc(N4CCC[C@@H](N)C4)n(Cc4ccccc4Cl)c3c(=O)n(C)c2c1.Cl

>  <qualitativeLabel>
NO

$$$$
>  <structure>
Cl.Cn1c(=O)c2c(nc(N3CCC[C@@H](N)C3)n2Cc2ccccc2Cl)c2cc(C(=O)OCCN3CCOCC3)ccc21

>  <qualitativeLabel>
YES

$$$$
>  <structure>
COC(=O)c1ccc2c(c1)c1nc(N3CCC[C@@H](N)C3)n(Cc3ccccc3Cl)c1c(=O)n2C.Cl

>  <qualitativeLabel>
NO

$$$$
>  <structure>
Cl.Cn1c(=O)c2c(nc(N3CCC[C@@H](N)C3)n2Cc2ccccc2Cl)c2cc(C(=O)OCOC(=O)C(C)(C)C)ccc21

>  <qualitativeLabel>
YES

$$$$
>  <structure>
Cc1oc(=O)oc1COC(=O)c1ccc2c(c1)c1nc(N3CCC[C@@H](N)C3)n(Cc3cc(F)ccc3Cl)c1c(=O)n2C.Cl

>  <qualitativeLabel>
NO

$$$$
>  <structure>
Cc1oc(=O)oc1COC(=O)c1ccc2c3nc(N4CCC[C@@H](N)C4)n(Cc4ccccc4Cl)c3c(=O)n(C)c2c1.Cl

>  <qualitativeLabel>
NO

$$$$
>  <structure>
Cn1c(=O)c2c(nc(N3CCC[C@@H](N)C3)n2Cc2ccccc2Cl)c2cc(C(=O)O)ccc21

>  <qualitativeLabel>
YES

$$$$
>  <structure>
Cn1c(=O)c2c(nc(N3CCC[C@@H](N)C3)n2Cc2ccccc2Cl)c2ccc(C(=O)O)cc21

>  <qualitativeLabel>
YES

$$$$

----------
Assay: Drug metabolism in Sprague-Dawley rat liver S9 fraction assessed as compound remaining at 1 uM after 30 mins by HPLC/MS/MS analysis relative to control
Type: ADME, subcellular
Conditions: read-out: Stability
measuredProperty: remaining at 0.5 h, 1 µM

>  <structure>
COC(=O)c1ccc2c(c1)c1nc(N3CCC[C@@H](N)C3)n(Cc3ccccc3Cl)c1c(=O)n2C.Cl

>  <obsValue>
< 0.5%

$$$$
>  <structure>
CN(C)CCCOC(=O)c1ccc2c(c1)c1nc(N3CCC[C@@H](N)C3)n(Cc3ccccc3Cl)c1c(=O)n2C.Cl

>  <obsValue>
> 99%

$$$$
>  <structure>
Cl.Cn1c(=O)c2c(nc(N3CCC[C@@H](N)C3)n2Cc2ccccc2Cl)c2cc(C(=O)OCCN3CCOCC3)ccc21

>  <obsValue>
> 99%

$$$$
>  <structure>
Cc1oc(=O)oc1COC(=O)c1ccc2c(c1)c1nc(N3CCC[C@@H](N)C3)n(Cc3ccccc3Cl)c1c(=O)n2C.Cl

>  <obsValue>
< 0.5%

$$$$
>  <structure>
Cl.Cn1c(=O)c2c(nc(N3CCC[C@@H](N)C3)n2Cc2ccccc2Cl)c2cc(C(=O)OCOC(=O)C(C)(C)C)ccc21

>  <obsValue>
< 0.5%

$$$$
>  <structure>
CN(C)CCOC(=O)c1ccc2c(c1)c1nc(N3CCC[C@@H](N)C3)n(Cc3ccccc3Cl)c1c(=O)n2C.Cl

>  <obsValue>
> 99%

$$$$
